Reported TGI by item:
System: OVCAR-5 ovarian
ASSAY NOTES: NCI tumour cell line growth inhibition, 48 h
MEASUREMENT LABEL: TGI (µM)

* O=C(CNc1ccc(Cl)cc1)Nc1ccc(-c2nc3ccccc3s2)cc1 | 13.3
* CCN(CC)c1ccc2c(c1)OC(N)=C(C#N)C2c1cc(OC)c2c(c1)OCO2 (stereo unspecified) | 30.1
* O=[N+]([O-])c1ccc(C2=Nn3cnnc3SC2)o1 | 36.8

---

System: NCI-H226 lung
ASSAY NOTES: NCI tumour cell line growth inhibition, 48 h
MEASUREMENT LABEL: TGI (µM)

* O=C1/C(=C/c2ccc(Br)cc2)COc2ccc(O)c(O)c21 | 5.52
* NC(=O)NC1C(c2ccccc2)=C1c1ccccc1 | 25.1
* [Cl][Hg][c]1cc(Br)cc(Br)c1 | 8.84
* Cc1c([N+](=O)[O-])ccc2c(NCCCN(C)C)ccnc12 | 72.5
* OC[C@H]1C[C@](O)(c2ccc(Cl)cc2)[C@@H](c2ccc(Cl)cc2)O1 | 72.8
* Cn1nc(N)c2cc([C@@H]3Nc4ccc5[nH]ncc5c4[C@H]4C5CCC(C5)[C@@H]34)ccc21 (some centres undefined) | 23.5
* CC1(c2cccs2)CC(c2cccs2)=C(C#N)C(=C(C#N)C#N)N1 (centres undefined) | 90
* CC(C)CCN1c2nc(Nc3cc(F)c(O)c(F)c3)ncc2N(C)C(=O)C1C (centres undefined) | 41.2
* C=C1C(=O)O[C@@H]2C[C@@H]1CC/C(C)=C/CC/C(C)=C/CC[C@@]2(C)O | 22.2
* O=[N+]([O-])c1ccc(C2=Nn3cnnc3SC2)o1 | 67.2
* O=C(NCC(=O)N1CCCC1C(=O)OC(=O)C1CCCN1C(=O)CNC(=O)OCc1ccccc1)OCc1ccccc1 (centres undefined) | 66.2
* CC(=O)N(C)c1ccc(Nc2cc(C)[nH]c3ccc4ncnc4c23)cc1 | 19.5
* COc1cnc2c(c1)C(=O)c1c-2n(CCCNC(C)C)c(=O)c2cc(Cl)ccc12 | 30.1
* COC1(OC)CC2C(=O)N(Cc3ccccc3)C1C(S(=O)(=O)c1ccccc1)C2S(=O)(=O)c1ccccc1 (centres undefined) | 35.2
* O=C(Cc1ccc(/C=C/C(=O)c2ncc[nH]2)cc1)Nc1cc(F)c(F)c(F)c1 | 12.8
* COc1ccc2c(c1)CCCC(Br)C2=O (centres undefined) | 5.92
* CC(C)=CCNc1ncnc2c1ncn2C1OC(CO)C(O)C1O (centres undefined) | 7.1
* COc1cc(OC)c(-c2ccc(OCc3ccccc3)c3c(OC)cc(C)cc23)c2c1C(C)=N[C@H](C)C2 | 5.52
* COc1ccc(CN2C(=O)/C(=C\C(=O)c3ccc(OCCN4CCCCC4)cc3)c3ccccc32)cc1 | 32.2
* COc1cc(/C=C2\C[C@H]3[C@@H]4CCc5cc(O)ccc5[C@H]4CC[C@]3(C)C2=O)cc(OC)c1OC | 32
* O=C(CNc1ccc(Cl)cc1)Nc1ccc(-c2nc3ccccc3s2)cc1 | 11
* CC1=CC(C)C/C=C/C2C3OC3(C)C(C)C3C(Cc4c[nH]c5ccccc45)NC(=O)C23C(=O)C=CC(=O)C1O (centres undefined) | 32

---

Test system: RPMI-8226 leukemia
ASSAY NOTES: NCI tumour cell line growth inhibition, 48 h
MEASUREMENT LABEL: TGI

- C=C(CCC/C(C)=C/C=C/[C@]1(C)CCCc2ccoc21)CC(=O)O: > 100 µM
- COc1cc(C(Cc2ccccc2)NC(C)=O)oc(=O)c1 (stereo unspecified): > 100 µM
- CC(=O)Nc1ccc(C(=O)NN2C(=O)CSC2c2ccc([N+](=O)[O-])cc2)cc1 (stereo unspecified): > 100 µM
- CC(=O)c1ccc(NCc2cc(O)ccc2O)cc1: > 100 µM
- Cc1cc(N)c(C)c2c1[nH]c1ccc(O)cc12: > 100 µM
- CN1CCN(CCOc2ccc(-c3cnc4c(-c5ccccc5F)cnn4c3)cc2)CC1: 5.44 µM
- COc1cc(OC)c(-c2ccc(OCc3ccccc3)c3c(OC)cc(C)cc23)c2c1C(C)=N[C@H](C)C2: 3.61 µM
- NC1CC(=O)c2c(Br)csc21 (stereo unspecified): > 100 µM
- CCCCCCCCCCCCCC1=NC(C)(C)CN1C(C)C: 3.03 µM
- CN=c1nc2sc3c(c2c(NC(=S)NC)s1)CCCC3: > 100 µM
- CN(C)c1nc2ccccc2[nH]1: > 100 µM
- N#Cc1c(-c2ccc(Cl)cc2)c2c([nH]c1=O)-c1ccccc1SC2: 98.8 µM
- CCCCN(CCCC)CC(O)c1cc(-c2ccc(C(F)(F)F)cc2)nc(-c2ccc(C(F)(F)F)cc2)c1 (stereo unspecified): > 100 µM
- CC(C)(C)NC(NC(C)(C)C)=C(/C=C(/Cl)[N+](=O)[O-])[N+](=O)[O-]: > 100 µM
- O=[N+]([O-])c1ccc(C2=Nn3cnnc3SC2)o1: 42.5 µM
- Cc1ccc(C)c(C2=C(c3cn(C)c4ccccc34)C(=O)NC2=O)c1: > 25 µM

---

Reported TGI by item:
Test system: DU-145 prostate
ASSAY NOTES: NCI tumour cell line growth inhibition, 48 h
MEASUREMENT LABEL: TGI

• COc1ccc(CN2C(=O)/C(=C\C(=O)c3ccc(OCCN4CCCCC4)cc3)c3ccccc32)cc1 = 11.5 µM
• COC(=O)c1ccc(C(=O)NC(Cc2ccc(Oc3cc(CC(NC(=O)c4ccccc4C(=O)OC)C(=O)OC)ccc3OC)cc2)C(=O)OC)cc1 (stereo not given) = > 100 µM
• OCCCCCCCCCCCOc1ccc(C2OCC3(CO2)COC(c2ccc(OCCCCCCCCCCCO)cc2)OC3)cc1 (stereo not given) = > 50 µM
• CCCn1c2ccccc2c2ccc3c(c21)C(=O)C=CC3=O = > 10 µM
• Cc1cc(C)nc(NC(=O)c2ccc(Br)s2)c1 = > 100 µM

---

Reported TGI by item:
Tested on: HCT-116 colon
ASSAY NOTES: NCI tumour cell line growth inhibition, 48 h
MEASUREMENT LABEL: TGI (µM)

- CCN(CC)c1ccc2c(c1)OC(N)=C(C#N)C2c1cc(OC)c2c(c1)OCO2 (stereo not given): 1.78
- CCCCCCCCCCCCCC1=NC(C)(C)CN1C(C)C: 2.68
- CCN(CC)CCC(=O)/C=C/c1ccccc1: 22.4
- CC(C)N(C(=O)C12C3C4C5(C#N)C3C1(C#N)C5C42I)C(C)C (stereo not given): 31.5
- CN(C)CCCNC(=O)c1cc2[nH]c3c(cnc4ccc([N+](=O)[O-])cc43)c(=O)c2n1C: 20.1
- CCCCCCNC(=O)c1cc(NCc2cc(O)ccc2O)ccc1O: 24.9

---

Tested on: A549 NSCLC
ASSAY NOTES: NCI tumour cell line growth inhibition, 48 h; in the data active means GI50 below about 0.43 µM; inactive means the rest
Labels: YES (active), NO (inactive)

• CCCCCCCCCCCCCC1=NC(C)(C)CN1C(C)C = NO
• CC(C)=CC/C=C(/C)[C@H]1CC[C@]2(C)[C@@H]1CC[C@@H]1[C@@]3(C)CCCNC(C)(C)[C@@H]3CC[C@]12C = NO
• O=C(Cc1ccc(/C=C/C(=O)c2ncc[nH]2)cc1)Nc1cc(F)c(F)c(F)c1 = NO
• COc1cnc2c(c1)C(=O)c1c-2n(CCCNC(C)C)c(=O)c2cc(Cl)ccc12 = YES
• COc1cc(C2CC(c3cccc(Br)c3)=NN2C(C)=O)cc(OC)c1OC (centres undefined) = NO
• COc1cc2nc(-c3ccc(Cl)cc3)cc(OCCCN3CCCCC3)c2cc1OC = NO
• COc1ccc(/C=C(/C(=O)N2CCN(c3ccccc3)CC2)c2cc(OC)c(OC)c(OC)c2)cc1O = NO
• CCC[CH2][Sn]1([CH2]CCC)[O]N=C(c2ccccc2)C(c2ccccc2)[O]1 (centres undefined) = NO
• Cc1ccc(C)c(C2=C(c3cn(C)c4ccccc34)C(=O)NC2=O)c1 = NO

---

Reported TGI by item:
System: SK-MEL-2 melanoma
ASSAY NOTES: NCI tumour cell line growth inhibition, 48 h
MEASUREMENT LABEL: TGI

• Nc1ccc(-c2nc3cc(F)ccc3s2)cc1Cl = > 100 µM
• CN(C)N=Nc1ccc(NC=O)cc1 = > 100 µM
• C=C1C(=O)O[C@@H]2C[C@@H]1CC/C(C)=C/CC/C(C)=C/CC[C@@]2(C)O = 12.5 µM
• c1nc(OCC2CCCCC2)c2[nH]cnc2n1 = > 100 µM
• O=C(NC(Cc1c[nH]c2ccccc12)C(=O)Nc1ccc(Br)cc1)OCc1ccccc1 (stereo not given) = 19.2 µM
• CCCC[C@@H]1CCN2C[C@@H](O)[C@@H](O)[C@@H]2[C@H]1O = > 100 µM
• O=C(Nc1ccc(Cl)cc1F)c1ccccc1O = 6.59 µM
• Cc1cc2c(cc1Cl)SC(NS(=O)(=O)c1ccc(Cl)cc1)=NS2(=O)=O = > 100 µM
• COc1ccc(N2C(=O)C(=O)N(c3ccccc3[N+](=O)[O-])C2=S)cc1 = 46 µM
• CC(C)=CCNc1ncnc2c1ncn2C1OC(CO)C(O)C1O (stereo not given) = 334 µM
• COc1ccc(N2C(=O)/C(=C(\C)c3cc4ccccc4oc3=O)N=C2c2cc([N+](=O)[O-])ccc2Cl)cc1 = > 100 µM
• CN1CCN(C(=O)CCNC(=O)Cc2ccc(C(=O)c3ccccc3)cc2)CC1 = > 100 µM
• N#Cc1c(-c2ccc(Cl)cc2)c2c([nH]c1=O)-c1ccccc1SC2 = > 100 µM
• O=C1C(Cl)N(c2ccc(Cl)cc2)C1c1c[nH]c2ccccc12 (stereo not given) = 29.3 µM
• CC(O)CCC(=O)c1ccoc1 (stereo not given) = > 8110 µM
• CC(C)(C)[Si](OC1CC(n2cnc3c(N)ncnc32)OC1CO)(c1ccccc1)c1ccccc1 (stereo not given) = 36.1 µM
• OCCCCCCCCCCCOc1ccc(C2OCC3(CO2)COC(c2ccc(OCCCCCCCCCCCO)cc2)OC3)cc1 (stereo not given) = > 50 µM
• COC(=O)C1=C(C)NC2=C(C(=O)c3ccccc32)C1c1cn(-c2ccccc2)nc1-c1ccccc1 (stereo not given) = > 100 µM
• CN(C)/C=N/c1nc2c(ncn2C2OC(CO)C(O)C2O)c(=O)[nH]1 (stereo not given) = > 100 µM
• O=C(O)CCC(=O)c1ccc[nH]1 = > 100 µM

Source: PubChem BioAssay (NCI)
